Source of measurements: paper PMC6656724

- test: Stability in mouse hepatic microsomes
- protocol_conditions: mouse, pooled liver microsomes, Half-life n=2, mouse hepatic microsomes, 1 µM
metric: half-life at 1 µM

Sample records with half-life at 1 µM:
compound: Cn1c(C(=O)N[C@@H](C(=O)O)c2ccccc2)cc2cc(F)ccc21
metric: half-life at 1 µM
endpoint_result: > 1.67 h
--
compound: Oc1ccc(-c2csc3nc(-c4ccccc4)nn23)c(O)c1
metric: half-life at 1 µM
endpoint_result: 1.15 h
--
compound: Cc1cc2c(c(C)c1Cl)N(CC(=O)O)C(=O)CO2
metric: half-life at 1 µM
endpoint_result: > 1.67 h

We now examine a further compound.
Field request: half-life at 1 µM | item: CC(CSc1ccc(Cl)cc1)C(=O)O (stereo not shown) > 1.67 h

###

Below is a list of entries, each paired with its recorded recovery at 1 h, 10 µM value.
- test: in vitro
- Assay type: in vitro ADME, canine
- protocol_conditions: dog, MDCK, pH 7.4, wild type MDCK; read-out: Recovery B>A Mean
Could you give me the number in %? Just the number is fine.

Field request: recovery at 1 h, 10 µM | item: CC(CSc1ccc(Cl)cc1)C(=O)O (stereo not drawn) [compound 6] 93.5

Field request: recovery at 1 h, 10 µM | item: CC[C@]1(O)C[C@@H]2CN(CCc3c([nH]c4ccccc34)[C@@](C(=O)OC)(c3cc4c(cc3OC)N(C)[C@H]3[C@@](O)(C(=O)OC)[C@H](OC(C)=O)[C@]5(CC)C=CCN6CC[C@]43[C@@H]65)C2)C1 [Vinblastine, reference compound] 72.5

Field request: recovery at 1 h, 10 µM | item: Cc1cc2c(c(C)c1Cl)N(CC(=O)O)C(=O)CO2 [compound 1] 108

###

- Tested on: MDR1 (P-glycoprotein)
- test: in vitro
- Format: in vitro ADME, canine
- protocol_conditions: dog, MDCK-MDR1, pH 7.4, MDR1 MDCK; read-out: Recovery B>A Mean
Below is a list of entries, each paired with its recorded recovery at 1 h, 10 µM value.
Could you give me the number in %? Just the number is fine.

Sample records with recovery at 1 h, 10 µM:
molecule: CC(CSc1ccc(Cl)cc1)C(=O)O (stereo not drawn)
units_text: %
endpoint_result: 80

molecule: Cn1c(C(=O)N[C@@H](C(=O)O)c2ccccc2)cc2cc(F)ccc21
units_text: %
endpoint_result: 81.5

We now examine a further molecule.
Field request: recovery at 1 h, 10 µM | item: CC(C)NCC(O)COc1cccc2ccccc12 (stereo not drawn) [Propranolol, reference compound] 80.5

###

- target_system: Homo sapiens KMO (HsKMO) (Homo sapiens)
- Construct: GST; made in house
- Sequence (O15229 whole entry): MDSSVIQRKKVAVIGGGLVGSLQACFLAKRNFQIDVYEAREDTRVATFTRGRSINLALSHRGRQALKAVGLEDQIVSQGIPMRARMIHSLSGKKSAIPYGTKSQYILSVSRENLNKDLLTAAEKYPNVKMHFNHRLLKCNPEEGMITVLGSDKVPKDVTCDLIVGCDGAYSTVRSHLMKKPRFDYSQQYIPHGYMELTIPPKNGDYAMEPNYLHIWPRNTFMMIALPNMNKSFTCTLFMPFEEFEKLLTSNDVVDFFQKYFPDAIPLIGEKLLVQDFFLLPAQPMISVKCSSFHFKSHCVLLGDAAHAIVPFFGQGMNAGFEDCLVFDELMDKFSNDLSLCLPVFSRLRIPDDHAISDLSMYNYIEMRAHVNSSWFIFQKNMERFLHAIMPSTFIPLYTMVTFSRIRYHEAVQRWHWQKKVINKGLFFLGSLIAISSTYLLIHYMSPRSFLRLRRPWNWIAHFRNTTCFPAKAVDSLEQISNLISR
- test: KMO inhibition assay, NADPH oxidation at 340 nm (HsKMO)
- Type: biochemical
pIC50: −log10 of the molar value.
Below is a list of entries, each paired with its recorded pIC50 value.

Sample records with pIC50:
smiles_data: CCOC(=O)CN1C(=O)COc2cc(C)c(Cl)c(C)c21
pIC50: < 3.30
--
smiles_data: Cc1cc2c(c(C)c1Cl)N(CC(=O)OC(C)C)C(=O)CO2
pIC50: < 3.52

We now examine a further compound.
Field request: pIC50 | item: Cc1cc2c(c(C)c1Cl)N(CC(=O)OC(C)(C)C)C(=O)CO2 < 3.52
